target: Cdc7/ASK (Homo sapiens); assay: Cdc7 Biochemical Assay Method 1: 384 well ELISA, whole protein substrate MCM2, antibody against Phospho MCM2 (S53); parameters: purchased; conditions: 2 μM ATP, read-out: Biochemical Method 1 (pIC50) (converted)
Counter-ions that a name gives are not always drawn.
MEASURED_PROPERTY: IC50 (nM)

[
  {
    "COMPOUND": "O=C(N1CCC(c2nc(-c3ccncc3)[nH]c(=O)c2Cl)CC1)C(F)(F)F [Compound 38]",
    "DATA_VALUE": 5.62
  },
  {
    "COMPOUND": "O=c1[nH]c(-c2ccncc2)nc(N2CCNC3(CCC3)C2)c1Cl [Compound 158]",
    "DATA_VALUE": 19.5
  },
  {
    "COMPOUND": "O=c1[nH]c(-c2ccncc2)nc(N2CCNCC2)c1Cl [Compound 416, hydrochloride]",
    "DATA_VALUE": 1.95
  },
  {
    "COMPOUND": "CN(C)C(=O)C1CN(c2nc(-c3ccncc3)[nH]c(=O)c2Cl)CCO1 (centres unmarked) [Compound 97]",
    "DATA_VALUE": 200
  },
  {
    "COMPOUND": "C[C@H]1CN(c2nc(-c3ccnc(F)c3)[nH]c(=O)c2Cl)CCN1 [Compound 171]",
    "DATA_VALUE": 1.17
  },
  {
    "COMPOUND": "COC(=O)[C@@H]1CN(c2nc(-c3ccncc3)[nH]c(=O)c2Cl)CCN1C(=O)OC(C)(C)C [Compound 162]",
    "DATA_VALUE": 155
  },
  {
    "COMPOUND": "O=C(c1cscn1)N1CCC(c2nc(-c3ccncc3)[nH]c(=O)c2Cl)CC1 [Compound 57]",
    "DATA_VALUE": 3.47
  },
  {
    "COMPOUND": "O=C(c1ccccc1)N1CCC(c2nc(-c3ccncc3)[nH]c(=O)c2Cl)CC1 [Compound 41]",
    "DATA_VALUE": 6.92
  }
]

---

Property: IC50; scope: individual molecules
target: Cdc7/ASK (Homo sapiens, UniProt O00311); assay: Cdc7 Biochemical Assay Method 4: off-chip mobility shift assay (Carna Biosciences); set-up: purchased Carna Biosciences; host or cells: baculovirus expression system; conditions: off-chip MSA, MCM2 peptide, 5 hours; read-out: Biochemical Method 4 (pIC50) (converted)
Sequence (O00311 whole entry): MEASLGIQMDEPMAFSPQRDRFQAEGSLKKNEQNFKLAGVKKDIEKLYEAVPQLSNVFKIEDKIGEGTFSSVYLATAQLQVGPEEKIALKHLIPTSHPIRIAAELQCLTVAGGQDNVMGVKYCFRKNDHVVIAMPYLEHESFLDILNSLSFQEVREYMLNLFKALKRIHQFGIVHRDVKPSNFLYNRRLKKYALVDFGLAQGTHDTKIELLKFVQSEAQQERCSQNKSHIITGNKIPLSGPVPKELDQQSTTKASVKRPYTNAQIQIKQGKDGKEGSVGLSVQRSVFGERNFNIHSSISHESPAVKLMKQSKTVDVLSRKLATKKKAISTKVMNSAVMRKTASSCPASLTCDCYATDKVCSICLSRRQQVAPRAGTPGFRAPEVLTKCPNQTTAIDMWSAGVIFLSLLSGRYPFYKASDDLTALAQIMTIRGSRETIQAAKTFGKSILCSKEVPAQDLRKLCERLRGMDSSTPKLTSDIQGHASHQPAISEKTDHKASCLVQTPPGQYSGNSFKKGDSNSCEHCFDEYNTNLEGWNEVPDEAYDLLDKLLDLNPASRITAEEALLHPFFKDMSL
Sequence (Q9UBU7 whole entry partner): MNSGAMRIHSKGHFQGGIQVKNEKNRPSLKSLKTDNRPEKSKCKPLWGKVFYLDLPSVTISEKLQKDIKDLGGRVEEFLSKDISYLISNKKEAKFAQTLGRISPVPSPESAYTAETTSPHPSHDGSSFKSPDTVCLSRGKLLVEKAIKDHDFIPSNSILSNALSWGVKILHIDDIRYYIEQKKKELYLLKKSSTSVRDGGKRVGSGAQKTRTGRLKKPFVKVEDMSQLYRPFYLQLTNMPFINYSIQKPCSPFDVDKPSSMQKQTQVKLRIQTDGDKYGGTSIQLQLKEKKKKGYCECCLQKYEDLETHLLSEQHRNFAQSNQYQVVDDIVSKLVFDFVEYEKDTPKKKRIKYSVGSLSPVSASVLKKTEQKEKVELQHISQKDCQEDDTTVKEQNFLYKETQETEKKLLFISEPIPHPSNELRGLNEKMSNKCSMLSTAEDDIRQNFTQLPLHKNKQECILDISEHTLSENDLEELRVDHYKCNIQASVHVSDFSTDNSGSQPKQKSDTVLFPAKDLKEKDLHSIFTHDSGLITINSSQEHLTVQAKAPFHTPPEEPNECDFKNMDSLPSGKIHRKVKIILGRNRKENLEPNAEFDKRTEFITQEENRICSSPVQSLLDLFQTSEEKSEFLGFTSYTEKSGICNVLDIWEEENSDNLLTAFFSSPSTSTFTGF
Structures can show the parent of a compound that is named as a salt.

[
  {
    "MOLECULE": "O=c1[nH]c(-c2ccnc(F)c2)nc(N2CCNCC(F)C2)c1Cl (single isomer, unassigned) [Compound 380, hydrochloride]",
    "IC50, nM": 3.98
  },
  {
    "MOLECULE": "Cl.O=c1[nH]c(-c2ccncc2)nc(N2CCNCC2C(F)(F)F)c1Cl (single isomer, unassigned) [Compound 387]",
    "IC50, nM": 6.03
  },
  {
    "MOLECULE": "Cl.O=c1[nH]c(-c2ccnc(F)c2)nc(N2CCNCC2C(F)F)c1Cl (single isomer, unassigned) [Compound 389]",
    "IC50, nM": 21.4
  },
  {
    "MOLECULE": "O=c1[nH]c(-c2ccnc(F)c2)nc(N2CCNCC(C(F)(F)F)C2)c1Cl (stereo not shown) [Compound 375]",
    "IC50, nM": 7.41
  },
  {
    "MOLECULE": "Cl.O=c1[nH]c(-c2ccnc(F)c2)nc(N2CCNCC(C(F)(F)F)C2)c1Cl (stereo not shown) [Compound 385]",
    "IC50, nM": 11.5
  },
  {
    "MOLECULE": "CN1CCN(c2nc(-c3ccnc(F)c3)[nH]c(=O)c2Cl)CC(F)(F)C1 [Compound 415]",
    "IC50, nM": 9.33
  },
  {
    "MOLECULE": "O=c1[nH]c(-c2ccnc(F)c2)nc(N2CCNCC23CC3)c1Cl [Compound 377]",
    "IC50, nM": 4.37
  },
  {
    "MOLECULE": "Cl.O=c1[nH]c(-c2ccnc(F)c2)nc(N2CCNC(C3CC3)C2)c1Cl (single isomer, unassigned) [Compound 393]",
    "IC50, nM": 13.8
  },
  {
    "MOLECULE": "O=c1[nH]c(-c2ccnc(F)c2)nc(N2CCNCC2C(F)(F)F)c1Cl (stereo not shown) [Compound 313, hydrochloride]",
    "IC50, nM": 8.51
  },
  {
    "MOLECULE": "Cl.O=c1[nH]c(-c2ccnc(F)c2)nc(N2CCNCC2C(F)(F)F)c1Cl (single isomer, unassigned) [Compound 384]",
    "IC50, nM": 42.7
  },
  {
    "MOLECULE": "C[C@@H]1CNCCN1c1nc(-c2ccncc2F)[nH]c(=O)c1Cl [Compound 400]",
    "IC50, nM": 5.75
  },
  {
    "MOLECULE": "CC(F)(F)C1CNCCN1c1nc(-c2ccnc(F)c2)[nH]c(=O)c1Cl (stereo not shown) [Compound 392]",
    "IC50, nM": 38.9
  },
  {
    "MOLECULE": "Cl.O=c1[nH]c(-c2ccnc(F)c2)nc(N2CCNC(C3CC3)C2)c1Cl (single isomer, unassigned) [Compound 394]",
    "IC50, nM": 70.8
  },
  {
    "MOLECULE": "C[C@H]1CN[C@@H](C(F)(F)F)CN1c1nc(-c2ccnc(F)c2)[nH]c(=O)c1Cl.Cl (single isomer, unassigned) [Compound 396, hydrochloride]",
    "IC50, nM": 135
  },
  {
    "MOLECULE": "Cl.O=c1[nH]c(-c2ccncc2)nc(N2CCNCC2C(F)(F)F)c1Cl (single isomer, unassigned) [Compound 388]",
    "IC50, nM": 91.2
  },
  {
    "MOLECULE": "CC(C)(F)C1CN(c2nc(-c3ccnc(F)c3)[nH]c(=O)c2Cl)CCN1 (single isomer, unassigned) [Compound 381, hydrochloride]",
    "IC50, nM": 70.8
  },
  {
    "MOLECULE": "CC(C)(F)C1CN(c2nc(-c3ccnc(F)c3)[nH]c(=O)c2Cl)CCN1 (single isomer, unassigned) [Compound 382, hydrochloride]",
    "IC50, nM": 11.7
  },
  {
    "MOLECULE": "O=c1[nH]c(-c2ccnc(Cl)c2)nc(N2CCNCC(F)(F)C2)c1Cl [Compound 401]",
    "IC50, nM": 4.79
  },
  {
    "MOLECULE": "C[C@H]1CN[C@@H](C(F)(F)F)CN1c1nc(-c2ccnc(F)c2)[nH]c(=O)c1Cl.Cl (single isomer, unassigned) [Compound 395, hydrochloride]",
    "IC50, nM": 7.76
  },
  {
    "MOLECULE": "O=c1[nH]c(-c2ccnc(F)c2)nc(N2CCNCC(F)C2)c1Cl (stereo not shown) [Compound 373]",
    "IC50, nM": 5.25
  },
  {
    "MOLECULE": "Cl.O=c1[nH]c(-c2ccnc(F)c2)nc(N2CCNCC2C(F)F)c1Cl (single isomer, unassigned) [Compound 390]",
    "IC50, nM": 4.27
  },
  {
    "MOLECULE": "O=c1[nH]c(-c2ccncc2F)nc(N2CCNCC(F)(F)C2)c1Cl [Compound 399, hydrochloride]",
    "IC50, nM": 12.6
  }
]
